# Measurement notes: physchem
# Condition info: n-octanol/phosphate buffer, pH 7.4
Param threshold (0.9) applies to logD; output 1 (yes) when value >= threshold, 0 (no) when value < threshold.

- Line notation: "C[C@@](CCN1Cc2cc(C#CC#CCN3CCC(O)CC3)cn2C1=O)(C(=O)NO)S(C)(=O)=O"
  Qualitative label: "0 (no)"
- Line notation: "C[C@]1(CO)C[C@@H]1C#CC#Cc1cc2n(c1)C(=O)N(CC[C@](C)(C(=O)NO)S(C)(=O)=O)C2"
  Qualitative label: "1 (yes)"
- Line notation: "CN1CC(F)(C#CC#Cc2cc3n(c2)C(=O)N(CC[C@](C)(C(=O)NO)S(C)(=O)=O)C3)C1"
  Qualitative label: "1 (yes)"
- Line notation: "CN1CCC(F)(C#CC#Cc2cc3n(c2)C(=O)N(CC[C@](C)(C(=O)NO)S(C)(=O)=O)C3)CC1"
  Qualitative label: "1 (yes)"
- Line notation: "CN1CC(C#CC#Cc2cc3n(c2)C(=O)N(CC[C@](C)(C(N)=O)S(C)(=O)=O)C3)C1"
  Qualitative label: "0 (no)"
- Line notation: "CC(C)N1CC(C#CC#Cc2cc3n(c2)C(=O)N(CC[C@](C)(C(=O)NO)S(C)(=O)=O)C3)C1"
  Qualitative label: "1 (yes)"
- Line notation: "C[C@@](CCN1Cc2cc(C#CC#C[C@@H]3C[C@H]3[C@H](O)CO)cn2C1=O)(C(=O)NO)S(C)(=O)=O"
  Qualitative label: "0 (no)"
